- Assayed Target: T1, β-catenin (UniProt P35222 1-781, limits assumed)
- T1 construct: also called beta-catenin
- T1 sequence (looked up): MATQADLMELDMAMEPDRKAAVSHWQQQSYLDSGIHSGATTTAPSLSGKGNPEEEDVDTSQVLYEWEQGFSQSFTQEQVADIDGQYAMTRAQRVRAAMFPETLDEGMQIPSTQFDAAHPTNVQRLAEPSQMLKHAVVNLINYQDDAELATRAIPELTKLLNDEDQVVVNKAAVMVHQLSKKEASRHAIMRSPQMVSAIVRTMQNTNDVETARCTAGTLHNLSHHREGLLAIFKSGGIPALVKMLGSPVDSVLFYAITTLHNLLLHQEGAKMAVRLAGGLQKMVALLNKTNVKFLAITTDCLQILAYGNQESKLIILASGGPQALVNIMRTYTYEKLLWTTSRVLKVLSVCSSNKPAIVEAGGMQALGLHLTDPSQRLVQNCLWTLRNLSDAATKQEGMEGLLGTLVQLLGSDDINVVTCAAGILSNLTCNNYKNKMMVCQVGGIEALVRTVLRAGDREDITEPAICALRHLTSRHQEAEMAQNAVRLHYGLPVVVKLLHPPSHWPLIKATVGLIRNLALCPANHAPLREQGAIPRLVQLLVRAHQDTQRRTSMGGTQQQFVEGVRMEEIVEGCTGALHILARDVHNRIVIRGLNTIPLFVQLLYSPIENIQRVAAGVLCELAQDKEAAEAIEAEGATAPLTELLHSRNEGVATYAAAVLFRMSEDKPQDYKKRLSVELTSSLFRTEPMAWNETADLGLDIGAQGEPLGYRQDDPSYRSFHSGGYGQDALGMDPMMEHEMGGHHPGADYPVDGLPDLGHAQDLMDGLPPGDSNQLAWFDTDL
- Experiment Description: ALPHA Screen (BCL9/β-catenin);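 also: bead proximity readout with the polypeptide linked to donor beads and β-catenin fixed on acceptor beads, their binding bringing the beads close enough to emit signal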
pIC50: −log10 of the molar value. Bridges are numbered along the chain shown (N, C = ends). Primed or numbered codes have the meaning given here. Where no end group is shown, it is not given here. [ ]: non-standard residue; d: D form. The star is where a group is joined. S5′ = (S)-2-(4'-pentenyl)alanine, olefinic stapling residue closed by ring-closing metathesis; PEG4″ = PEG4 (tetraethylene glycol) spacer; Phe(4-Cl) = N[C@@H](Cc1ccc(Cl)cc1)C(=O)O; 2Nal = N[C@@H](Cc1ccc2ccccc2c1)C(=O)O; NMeCha = CN[C@@H](CC1CCCCC1)C(=O)O; Palmitoyl = CCCCCCCCCCCCCCCC(=O)*; Ala(cPr) = N[C@@H](CC1CC1)C(=O)O; NMeQ = CN[C@@H](CCC(N)=O)C(=O)O; dCha = N[C@H](CC1CCCCC1)C(=O)O; Cba = N[C@@H](CC1CCC1)C(=O)O; S5 = C=CCCC[C@](C)(N)C(=O)O; Nle = CCCC[C@H](N)C(=O)O
# label = 1 if pIC50 >= 6 else 0

Check out these entries, answers already filled in.
LR[Nle]IQR[Nle]L[2Nal] [SEQ ID NO: 50]
0
Ac-LQTLR[S5]AQR[S5]L[2Nal]-NH2 (staple 6-10) [SEQ ID NO: 76]
0
Ac-LQTLR[S5]IQR[S5][dL][2Nal]-NH2 (staple 6-10) [SEQ ID NO: 105]
0
{Palmitoyl-PEG4″}-HRQRSLQTLR[S5]IQR[S5][Cba][2Nal]-NH2 (staple 11-15) [SEQ ID NO: 160]
1
Ac-LQTLR[S5]IQR[S5][dCha][2Nal]-NH2 (staple 6-10; not fully specified (residue 2); printed as L(N-methylQ)TLRXIQRXD(Cha)(2-Nal); also: N-methylQ at 2: D or L (both stated)) [SEQ ID NO: 173]
0

INPUT: Does the binder Ac-L[NMeQ]TLR[S5]IQR[S5][Phe(4-Cl)][2Nal]-NH2 (staple 6-10; not fully specified; printed as L(N-methylQ)TLRXIQRX(4-Cl-Ph)(2-Nal), X/X stapled, (S) α-methyl, N-terminal Ac, C-terminal NH2) [SEQ ID NO: 195] have recorded pIC50 that is 6 or more?
OUTPUT: 0

INPUT: Test whether the binder Ac-LQTLE[S5′]IQR[S5′]L[2Nal]-NH2 (staple 6-10) [SEQ ID NO: 98] records pIC50 of 6 or higher.
OUTPUT: 0

INPUT: pIC50 >= 6 for {4‑(trifluoromethyl)benzoic acid}-L[NMeQ]TLR[S5]IQR[S5][Cba][2Nal]-NH2 (staple 6-10; not fully specified, the footnote mark in T0158 is printed 19, seemingly for 10) [SEQ ID NO: 141] ?
OUTPUT: 0

INPUT: Could you tell me if the measured pIC50 of Ac-LQTLR[S5]IQR[S5][NMeCha][2Nal]-NH2 (staple 6-10; not fully specified (residue 2); printed as L(N-methylQ)TLRXIQRX(N-methylCha)(2-Nal); also: N-methylQ at 2: D or L (both stated)) [SEQ ID NO: 174] reaches 6 or more?
OUTPUT: 0

INPUT: Exam item: decide whether the reported pIC50 for Ac-LQT[Cba]R[S5]IQR[S5][Cba][2Nal]-NH2 (staple 6-10) [SEQ ID NO: 115] is at least 6.
OUTPUT: 0

INPUT: Tell me whether pIC50 is at least 6 here: Ac-HRQ[S5′]SLQ[S5′]LR[S5′]IQR[S5′][Cba][2Nal]-NH2 (staple 11-15, 4-8) [SEQ ID NO: 87]
OUTPUT: 0

INPUT: Hi team, for Ac-HRQRSLQTLR[S5]IQR[S5][Ala(cPr)][2Nal]-NH2 (staple 11-15) [SEQ ID NO: 162] , is the recorded pIC50 at or above 6?
OUTPUT: 1

INPUT: Form field: pIC50 at least 6? Entry: Ac-LQTLR[S5]IQR[S5][Ala(cPr)][2Nal]-NH2 (staple 6-10; not fully specified (residue 2); printed as LN(Me-Gln)TLRXIQRX(Cpa)(2-Nal)) [SEQ ID NO: 119]
OUTPUT: 0
